Biological target: recombinant human Mcl-1 (residues 171-327) / Bim interaction (Homo sapiens (Human))
Sequence (Q07820 171-327): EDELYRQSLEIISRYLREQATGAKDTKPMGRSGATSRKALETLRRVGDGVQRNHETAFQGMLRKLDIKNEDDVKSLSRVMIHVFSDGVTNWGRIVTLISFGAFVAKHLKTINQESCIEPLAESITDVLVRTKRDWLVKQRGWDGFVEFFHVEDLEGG
Experiment: biochemical
Assay type: binding
Conditions: 0.1 nM Mcl-1(171-327), 0.05 nM biotin-Bim (51-76); read-out: Mcl-1 HTRF IC50
pIC50: −log10 of the molar value.

compound	system_under_test	pIC50
CO[C@@]1(CN2CCN3CCN(S(C)(=O)=O)C[C@@H]3C2)/C=C/C[C@H](C)[C@@H](C)S(=O)(=O)NC(=O)c2ccc3c(c2)N(C[C@@H]2CC[C@H]21)C[C@@]1(CCCc2cc(Cl)ccc21)CO3 (single isomer, unassigned) [Example 245]	recombinant human Mcl-1 (residues 171-327) / Bim interaction (Homo sapiens (Human))	9.92
CO[C@@]1(CN2CCN(c3ccccn3)CC2)/C=C/C[C@H](C)[C@@H](C)S(=O)(=O)NC(=O)c2ccc3c(c2)N(C[C@@H]2CC[C@H]21)C[C@@]1(CCCc2cc(Cl)ccc21)CO3 [Example 252]	recombinant human Mcl-1 (residues 171-327) / Bim interaction (Homo sapiens (Human))	8.86
CO[C@@]1(CN2CCC(N(C)C)CC2)/C=C/C[C@H](C)[C@@H](C)S(=O)(=O)NC(=O)c2ccc3c(c2)N(C[C@@H]2CC[C@H]21)C[C@@]1(CCCc2cc(Cl)ccc21)CO3 [Example 118]	recombinant human Mcl-1 (residues 171-327) / Bim interaction (Homo sapiens (Human))	9.67
CCO[C@]1(CN2CCN(C(C)(C)C)CC2)/C=C/C[C@H](C)[C@@H](CCOC)S(=O)(=O)NC(=O)c2ccc3c(c2)N(C[C@@H]2CC[C@H]21)C[C@@]1(CCCc2cc(Cl)ccc21)CO3 [Example 190]	recombinant human Mcl-1 (residues 171-327) / Bim interaction (Homo sapiens (Human))	10.06
CO[C@@]1(CN2CCN3CCS(=O)(=O)C[C@@H]3C2)/C=C/C[C@H](C)[C@@H](C)S(=O)(=O)NC(=O)c2ccc3c(c2)N(C[C@@H]2CC[C@H]21)C[C@@]1(CCCc2cc(Cl)ccc21)CO3 (single isomer, unassigned) [Example 232]	recombinant human Mcl-1 (residues 171-327) / Bim interaction (Homo sapiens (Human))	9.85
COCC(COC)N1CCN(C[C@@]2(OC)/C=C/C[C@H](C)[C@@H](C)S(=O)(=O)NC(=O)c3ccc4c(c3)N(C[C@@H]3CC[C@H]32)C[C@@]2(CCCc3cc(Cl)ccc32)CO4)CC1 [Example 304]	recombinant human Mcl-1 (residues 171-327) / Bim interaction (Homo sapiens (Human))	9.65
CO[C@@]1(CN2CCN(c3nccs3)CC2)/C=C/C[C@H](C)[C@@H](C)S(=O)(=O)NC(=O)c2ccc3c(c2)N(C[C@@H]2CC[C@H]21)C[C@@]1(CCCc2cc(Cl)ccc21)CO3 [Example 255]	recombinant human Mcl-1 (residues 171-327) / Bim interaction (Homo sapiens (Human))	8.76
CO[C@]1(CN2CC(=O)N3CCCC[C@@H]3C2)/C=C/C[C@H](C)[C@@H](C)S(=O)(=O)NC(=O)c2ccc3c(c2)N(C[C@@H]2CC[C@H]21)C[C@@]1(CCCc2cc(Cl)ccc21)CO3 [Example 149]	recombinant human Mcl-1 (residues 171-327) / Bim interaction (Homo sapiens (Human))	9.89
CCN1[C@H](C)CN(C[C@@]2(OC)/C=C/C[C@H](C)[C@@H](C)S(=O)(=O)NC(=O)c3ccc4c(c3)N(C[C@@H]3CC[C@H]32)C[C@@]2(CCCc3cc(Cl)ccc32)CO4)C[C@@H]1C [Example 341]	recombinant human Mcl-1 (residues 171-327) / Bim interaction (Homo sapiens (Human))	10.28
C[C@@H]1CS(=O)(=O)NC(=O)c2ccc3c(c2)N(C[C@@H]2CC[C@H]2[C@@](O)(CN2CCN(C4COC4)CC2)/C=C/[C@@H]1C)C[C@@]1(CCCc2cc(Cl)ccc21)CO3 [Example 165]	recombinant human Mcl-1 (residues 171-327) / Bim interaction (Homo sapiens (Human))	9.72
CO[C@@]1(CN2CC(C)(C#N)C2)/C=C/C[C@H](C)[C@@H](C)S(=O)(=O)NC(=O)c2ccc3c(c2)N(C[C@@H]2CC[C@H]21)C[C@@]1(CCCc2cc(Cl)ccc21)CO3 [Example 67]	recombinant human Mcl-1 (residues 171-327) / Bim interaction (Homo sapiens (Human))	9.71
C[C@@H]1[C@@H](C)C/C=C/[C@@]2(CN(C)CCO2)[C@@H]2CC[C@H]2CN2C[C@@]3(CCCc4cc(Cl)ccc43)COc3ccc(cc32)C(=O)NS1(=O)=O [Example 124]	recombinant human Mcl-1 (residues 171-327) / Bim interaction (Homo sapiens (Human))	9.19
CCCO[C@]1(CN2CCN(C3COC3)CC2)/C=C/C[C@H](C)[C@@H](C)S(=O)(=O)NC(=O)c2ccc3c(c2)N(C[C@@H]2CC[C@H]21)C[C@@]1(CCCc2cc(Cl)ccc21)CO3 [Example 352]	recombinant human Mcl-1 (residues 171-327) / Bim interaction (Homo sapiens (Human))	9.95
COCC[C@@H]1[C@@H](C)C/C=C/[C@@](CN2CCN(C(C)C)CC2)(OC)[C@@H]2CC[C@H]2CN2C[C@@]3(CCCc4cc(Cl)ccc43)COc3ccc(cc32)C(=O)NS1(=O)=O [Example 188]	recombinant human Mcl-1 (residues 171-327) / Bim interaction (Homo sapiens (Human))	10.08
CCO[C@]1(CN2CCN(C(C)C)[C@H](C)C2)CCC[C@H](C)[C@@H](CCOC)S(=O)(=O)NC(=O)c2ccc3c(c2)N(C[C@@H]2CC[C@H]21)C[C@@]1(CCCc2cc(Cl)ccc21)CO3 [Example 519]	recombinant human Mcl-1 (residues 171-327) / Bim interaction (Homo sapiens (Human))	9.80
C[C@@H]1[C@@H](C)C/C=C/[C@]2(CN(CC3CCCCC3)CCO2)[C@@H]2CC[C@H]2CN2C[C@@]3(CCCc4cc(Cl)ccc43)COc3ccc(cc32)C(=O)NS1(=O)=O [Example 139]	recombinant human Mcl-1 (residues 171-327) / Bim interaction (Homo sapiens (Human))	7.49
CO[C@@]1(CN2CCC23COC3)/C=C/C[C@H](C)[C@@H](C)S(=O)(=O)NC(=O)c2ccc3c(c2)N(C[C@@H]2CC[C@H]21)C[C@@]1(CCCc2cc(Cl)ccc21)CO3 [Example 208]	recombinant human Mcl-1 (residues 171-327) / Bim interaction (Homo sapiens (Human))	10.00
CO[C@@]1(CN2CCN3CC[C@H](F)C[C@@H]3C2)/C=C/C[C@H](C)[C@@H](C)S(=O)(=O)NC(=O)c2ccc3c(c2)N(C[C@@H]2CC[C@H]21)C[C@@]1(CCCc2cc(Cl)ccc21)CO3 [Example 274]	recombinant human Mcl-1 (residues 171-327) / Bim interaction (Homo sapiens (Human))	9.55

###

Biological target: recombinant human Mcl-1 (residues 171-327) / Bim interaction (Homo sapiens (Human))
Test: biochemical
Assay type: binding
Details: TR-FRET, Mcl-1(171-327) / biotin-Bim (51-76); read-out: Mcl-1 HTRF IC50
I'd appreciate it if you marked entries 1 when IC50 is lower than 0.3 nM and 0 when it is not.

compound	assigned_category
C[C@@H]1[C@@H](C)C/C=C/C(O)(Cc2nccn2C)[C@@H]2CC[C@H]2CN2C[C@@]3(CCCc4cc(Cl)ccc43)COc3ccc(cc32)C(=O)NS1(=O)=O (stereo in doubt) [Example 100524]	0
C[C@@H]1[C@@H](C)C/C=C/[C@](O)(c2c[nH]nn2)[C@@H]2CC[C@H]2CN2C[C@@]3(CCCc4cc(Cl)ccc43)COc3ccc(cc32)C(=O)NS1(=O)=O [Example 100239]	0
CO[C@]1(Cc2noc(C)c2C)/C=C/C[C@H](C)[C@@H](C)S(=O)(=O)NC(=O)c2ccc3c(c2)N(C[C@@H]2CC[C@H]21)C[C@@]1(CCCc2cc(Cl)ccc21)CO3 [Example 100574]	0
COC(=O)C[C@]1(O)/C=C/C[C@H](C)[C@@H](C)S(=O)(=O)NC(=O)c2ccc3c(c2)N(C[C@@H]2CC[C@H]21)C[C@@]1(CCCc2cc(Cl)ccc21)CO3 [Example 100288]	1
C[C@@H]1[C@@H](C)C/C=C/[C@@](O)(C#CCN(C)C)[C@@H]2CC[C@H]2CN2C[C@@]3(CCCc4cc(Cl)ccc43)COc3ccc(cc32)C(=O)NS1(=O)=O [Example 100295]	1
C=CC[C@@]1(O)/C=C/C[C@H](C)[C@@H](C)S(=O)(=O)NC(=O)c2ccc3c(c2)N(C[C@@H]2CC[C@H]21)C[C@@]1(CCCc2cc(Cl)ccc21)CO3 [Example 100130]	0
CO[C@@]1(Cc2nc(CN3CCOCC3)c(C)o2)/C=C/C[C@H](C)[C@@H](C)S(=O)(=O)NC(=O)c2ccc3c(c2)N(C[C@@H]2CC[C@H]21)C[C@@]1(CCCc2cc(Cl)ccc21)CO3 [Example 100587]	1
COC(OC)c1cncc([C@@]2(OC)/C=C/C[C@H](C)[C@@H](C)S(=O)(=O)NC(=O)c3ccc4c(c3)N(C[C@@H]3CC[C@H]32)C[C@@]2(CCCc3cc(Cl)ccc32)CO4)c1 (single isomer, unassigned) [Example 100511]	1
C[C@@H]1[C@@H](C)CCC[C@](O)(CC#N)[C@@H]2CC[C@H]2CN2C[C@@]3(CCCc4cc(Cl)ccc43)COc3ccc(cc32)C(=O)NS1(=O)=O (single isomer, unassigned) [Example 100080]	0
CC[C@@H]1CC/C=C/[C@](COCCN2CCOCC2)(OC)[C@@H]2CC[C@H]2CN2C[C@@]3(CCCc4cc(Cl)ccc43)COc3ccc(cc32)C(=O)NS1(=O)=O (single isomer, unassigned) [Example 100597]	1
